test system: Tadpoles; test: Tadpole movement suppression (anesthetic efficacy); format: in vivo; settings: Concentration (mM): 50 + 150 EtOH
QUANTITY MEASURED: Movement suppressed (%)
Value expressed in %; do not type the unit.

State the recorded Movement suppressed (%) for this entry: O=C(O)CCCCC(=O)O
83

State the recorded Movement suppressed (%) for this entry: N[C@@H](CCC(=O)O)C(=O)O [Glutamate, Glutamic acid]
100

State the recorded Movement suppressed (%) for this entry: Cc1ccc(C(=O)NCC(=O)O)cc1
100

State the recorded Movement suppressed (%) for this entry: CC(C)(O)CC(=O)O [3-Hydroxy-3-methylbutyric acid, 3-Hydroxy-3-methylbutanoic acid]
100

* * *

tested on: Tadpoles; experiment: Tadpole movement suppression (anesthetic efficacy); format: in vivo; conditions: Concentration (mM): 100 + 150 EtOH
QUANTITY MEASURED: Movement suppressed (%)
Value expressed in %; do not type the unit.

Requested read-out Movement suppressed (%), target or system Tadpoles, entry CC(=O)CCC(=O)O
50

Requested read-out Movement suppressed (%), target or system Tadpoles, entry CC[C@H](C)[C@H](N)C(=O)O
60

Requested read-out Movement suppressed (%), target or system Tadpoles, entry NC(=O)C[C@H](N)C(=O)O
66

Requested read-out Movement suppressed (%), target or system Tadpoles, entry C[N+](C)(C)CCO
40

* * *

test system: Tadpoles; experiment: Tadpole movement suppression (anesthetic efficacy); type: in vivo; settings: Concentration (mM): 125
Could you please report measured Movement suppressed (%) for the items listed next?

State the recorded Movement suppressed (%) for this entry: O=C(O)C(=O)Cc1ccccc1 [Phenylpyruvic acid, 2-Oxo-3-phenylpropanoic acid]
100%

State the recorded Movement suppressed (%) for this entry: CCCC(=O)O [Butyric acid]
100%

State the recorded Movement suppressed (%) for this entry: CC(C)[C@H](N)C(=O)O [L-valine, Valine]
0%

State the recorded Movement suppressed (%) for this entry: CCC(O)C(=O)O (stereo not shown) [2-Hydroxybutyric acid, 2-hydroxybutyric acid]
0%

State the recorded Movement suppressed (%) for this entry: CC(C)(C(=O)O)C(=O)O [Dimethylmalonic acid]
60%

State the recorded Movement suppressed (%) for this entry: O=C(O)CCCC(=O)O [Glutaric acid]
0%

State the recorded Movement suppressed (%) for this entry: CCC(C(=O)O)C(=O)O [Ethyl Malonic Acid, 2-Ethylmalonic acid]
100%

* * *

Could you please report measured Movement suppressed (%) for the items listed next?
tested on: Tadpoles; assay: Tadpole movement suppression (anesthetic efficacy); type: in vivo; details: Concentration (mM): 125 + 150 EtOH
Value expressed in %; do not type the unit.

State the recorded Movement suppressed (%) for this entry: O=C(O)CCCC(=O)O
60

State the recorded Movement suppressed (%) for this entry: CCC(O)C(=O)O (stereo not shown) [2-Hydroxybutyric acid, 2-hydroxybutyric acid]
86

State the recorded Movement suppressed (%) for this entry: O=C(O)CC(=O)C(=O)O
100

State the recorded Movement suppressed (%) for this entry: C[C@H](N)C(=O)O
80

* * *

test system: Tadpoles; experiment: Tadpole movement suppression (anesthetic efficacy); format: in vivo; conditions: Concentration (mM): 250
Could you please report measured Movement suppressed (%) for the items listed next?
Be sure to follow the number with its unit.

State the recorded Movement suppressed (%) for this entry: C[C@H](O)CC(=O)O [S-3-hydroxybutyric acid, (S)-3-Hydroxybutanoic acid]
14%

State the recorded Movement suppressed (%) for this entry: CCCC(=O)O
100%

State the recorded Movement suppressed (%) for this entry: O=C(O)C(O)c1ccccc1 (stereo not drawn) [Mandelic acid, 2-Hydroxy-2-phenylacetic acid]
0%
